method-summary: Pharmacokinetic (PK) analysis in MH-22A tumor-bearing mice (LC/MS/MS)
Format: in vivo, mouse
assay-conditions: mouse, plasma, oral, 10 mg/kg, 10 mg/kg daily oral for 15 days, single agent, 4 h after last dosing; read-out: plasma concentration of APG-115
measured-quantity: concentration at 4 h

                                  structure     measured_quantity     result
0  CCN1[C@@H](C(=O)NC23CCC(C(=O)O)(CC2)CC3)[C@H](c2cccc(Cl)c2F)[C@]2(C(=O)Nc3cc(Cl)ccc32)C12CCCCC2  concentration at 4 h  157 ng/mL

---

method-summary: Pharmacokinetic (PK) analysis in MH-22A tumor-bearing mice (LC/MS/MS)
Assay type: in vivo, mouse
assay-conditions: mouse, plasma, oral, 10 mg/kg, 10 mg/kg in combination with anti-PD-1; read-out: plasma concentration of APG-115
measured-quantity: concentration at 4 h (ng/mL)

                                  structure  units_of_measure  numeric_result
0  CCN1[C@@H](C(=O)NC23CCC(C(=O)O)(CC2)CC3)[C@H](c2cccc(Cl)c2F)[C@]2(C(=O)Nc3cc(Cl)ccc32)C12CCCCC2             ng/mL             120

---

method-summary: Pharmacokinetic (PK) analysis in MH-22A tumor-bearing mice (LC/MS/MS)
Type: in vivo, mouse
assay-conditions: mouse, plasma, oral, 50 mg/kg, 50 mg/kg daily oral for 15 days, single agent, 4 h after last dosing; read-out: plasma concentration of APG-115
measured-quantity: concentration at 4 h (ng/mL)

>>> df
                                  structure     measured_quantity  numeric_result
0  CCN1[C@@H](C(=O)NC23CCC(C(=O)O)(CC2)CC3)[C@H](c2cccc(Cl)c2F)[C@]2(C(=O)Nc3cc(Cl)ccc32)C12CCCCC2  concentration at 4 h            1230

---

method-summary: Pharmacokinetic (PK) analysis in MH-22A tumor-bearing mice (LC/MS/MS)
Format: in vivo, mouse
assay-conditions: mouse, tumor, oral, 50 mg/kg, 50 mg/kg as single agent; read-out: APG-115 concentration in tumor tissues
measured-quantity: concentration at 4 h (ng/g)

                                  structure  units_of_measure  numeric_result
0  CCN1[C@@H](C(=O)NC23CCC(C(=O)O)(CC2)CC3)[C@H](c2cccc(Cl)c2F)[C@]2(C(=O)Nc3cc(Cl)ccc32)C12CCCCC2              ng/g            1470
